- Test Target: human GLP-1 receptor (human, UniProt P43220 24-463)
- Assay Text: cell-based or functional assay
Bridges are numbered along the chain shown (N, C = ends). Where no end group is shown, it is not given here. [ ]: non-standard residue; d: D form. The star is where a group is joined. Acetyl(2-(4-imidazolyl)) = O=C(Cc1c[nH]cn1)*; Aib = CC(C)(N)C(=O)O
Measured Endpoint: in vitro Activity Compared to Native Peptide (%), vs GLP-1
Provide only the numeric value, understood in %.

Examples with their reported in vitro Activity Compared to Native Peptide (%), vs GLP-1 follow.
# Binder, Scale Unit, Measurement
records = [
    ("[Acetyl(2-(4-imidazolyl))][Aib]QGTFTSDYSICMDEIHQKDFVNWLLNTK (bridge 16-20; not fully specified (C-terminus)) [triple agonist of SEQ ID NO: 49]", "%", 29.8),
    ("Y[Aib]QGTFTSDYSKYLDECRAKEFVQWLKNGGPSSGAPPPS (bridge 16-20; not fully specified (C-terminus)) [triple agonist of SEQ ID NO: 24]", "%", 41.2),
]

Field: next binder
input: If you can, please state the reported in vitro Activity Compared to Native Peptide (%), vs GLP-1 value of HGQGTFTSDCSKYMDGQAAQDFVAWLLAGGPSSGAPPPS (not fully specified (C-terminus)) [triple agonist of SEQ ID NO: 45] .
output: 6.6
